For each entry below, report its IC50 value.
Biological target: GPR6 (Homo sapiens, UniProt P46095)
Construct: expressed in transfected cells; host or cells: CHO cells
Sequence (P46095 whole entry): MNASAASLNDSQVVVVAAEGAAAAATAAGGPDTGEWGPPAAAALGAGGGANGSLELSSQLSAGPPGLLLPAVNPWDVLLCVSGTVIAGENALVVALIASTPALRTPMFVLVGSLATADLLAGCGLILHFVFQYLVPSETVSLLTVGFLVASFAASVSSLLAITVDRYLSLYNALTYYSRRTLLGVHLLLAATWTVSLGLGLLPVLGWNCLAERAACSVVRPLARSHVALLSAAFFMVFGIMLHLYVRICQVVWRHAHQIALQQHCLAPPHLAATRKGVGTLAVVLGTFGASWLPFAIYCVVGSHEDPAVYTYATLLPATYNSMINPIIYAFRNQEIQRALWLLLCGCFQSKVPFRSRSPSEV
Assay: GPR6 antagonist functional cAMP assay (LANCE Ultra cAMP TR-FRET, CHO cells stably expressing GPR6)
Format: cell-based
Conditions: CHO cells stably expressing GPR6, cAMP assay (Example 24)

For record `CCn1cc(-c2nc3cnc(N)cc3nc2N2CCC(Oc3cc(Cl)ccc3Cl)CC2)cn1` the listed IC50 is 1000 to 30000 nM

For record CCn1cc(-c2nc3c(nc2N2CCC(Oc4ccc(F)cc4F)CC2)CCN(C(=O)C2CC(F)(F)CN2C)C3)cn1 (stereo not shown) the listed IC50 is 100 to 1000 nM

For record `Fc1ccc(OC2CCN(c3nc4ccncc4nc3-c3ccn[nH]3)CC2)c(F)c1` the listed IC50 is 1000 to 30000 nM

For record `COCCn1cc(-c2nc3c(nc2N2CCC(Oc4ccc(F)cc4F)CC2)CCN(C(C)=O)C3)cn1` the listed IC50 is 100 to 1000 nM

For record CC(C)(O)C(O)c1cc2nc(N3CCN(Cc4ccc(F)cc4F)CC3)c(-c3cnn(C(F)F)c3)nc2cn1 (stereo not shown) the listed IC50 is < 100 nM

For record `COc1cccc(-c2nc3c(nc2N2CCC(Oc4ccc(F)cc4F)CC2)CCN(C(C)=O)C3)n1` the listed IC50 is 100 to 1000 nM

For record `CC(=O)N1CCc2nc(N3CCC(Oc4ccc(F)cc4F)CC3)c(-c3cnn(CC#N)c3)nc2C1` the listed IC50 is 100 to 1000 nM

* * *

Molecular target: GPR3 (Homo sapiens)
Construct: expressed in transfected cells; host or cells: CHO cells
Assay: GPR3 antagonist functional cAMP assay (LANCE Ultra cAMP TR-FRET, CHO cells stably expressing GPR3)
Type: cell-based
Settings: CHO cells stably expressing GPR3, cAMP assay
pIC50: −log10 of the molar value.
measurement_type: pIC50

For record Cn1cc(-c2nc3cnc([C@@](C)(O)CO)cc3nc2N2CCC(Oc3ccc(F)cc3F)CC2)cn1 (single isomer, unassigned) [Compound 564] the listed pIC50 is 4.52 to 6.00

For record CC(C)(O)C(O)c1cc2nc(-c3cnn(C(F)F)c3)c(N3CCC(Oc4ccc(F)cc4F)CC3)nc2cn1 (single isomer, unassigned) [Compound 583] the listed pIC50 is 4.52 to 6.00

For record Cn1cc(-c2nc3cnc([C@](C)(O)CO)cc3nc2N2CCC(Oc3ccc(F)cc3F)CC2)cn1 (single isomer, unassigned) [Compound 565] the listed pIC50 is 4.52 to 6.00

For record COc1ccc(OC2CCN(c3nc4c(nc3-c3cnn(C)c3)CN(C(C)=O)CC4)CC2)cc1F [Compound 502] the listed pIC50 is 4.52 to 6.00

For record CC(=O)N1CCc2nc(N3CCN(Cc4ccc(F)cc4F)CC3)c(-c3ccc(F)c(N)n3)nc2C1 [Compound 609] the listed pIC50 is 6.00 to 7.00

For record COC[C@@H]1C[C@H]1c1nc2c(nc1N1CCC(Oc3ccc(F)cc3F)CC1)CCN(C(C)=O)C2 [Compound 547] the listed pIC50 is 4.52 to 6.00

* * *

Target: GPR3 (Homo sapiens, UniProt P46089)
Construct: expressed in transfected cells; host or cells: CHO cells
Sequence (P46089 whole entry, species assumed): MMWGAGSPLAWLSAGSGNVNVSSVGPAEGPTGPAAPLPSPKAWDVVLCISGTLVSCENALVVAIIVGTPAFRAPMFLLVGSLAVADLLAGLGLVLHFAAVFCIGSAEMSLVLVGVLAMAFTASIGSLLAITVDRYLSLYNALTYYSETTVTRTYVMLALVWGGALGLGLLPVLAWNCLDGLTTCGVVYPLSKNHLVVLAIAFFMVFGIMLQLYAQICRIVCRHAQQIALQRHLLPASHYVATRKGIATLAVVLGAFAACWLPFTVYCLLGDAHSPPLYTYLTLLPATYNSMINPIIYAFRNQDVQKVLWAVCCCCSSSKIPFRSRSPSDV
Experiment: GPR3 antagonist functional cAMP assay (LANCE Ultra cAMP TR-FRET, CHO cells stably expressing GPR3)
Format: cell-based
Conditions: CHO cells stably expressing GPR3, cAMP assay (Example 24)
Description: Example 56. GPR6 and GPR3 Antagonist Functional cAMP Assay CHO cells stably expressing GPR6 or GPR3 receptors were dissociated from cell culture flasks and incubated for 2 h at 37° C. in a 10 cm dish in a humidified incubator. […] To measure cAMP levels, LANCE® Ultra cAMP assay (Perkin Elmer), a homogeneous time-resolved fluorescence resonance energy transfer (TR-FRET) immunoassay was used following manufacturer's recommendations. […] FRET values were reported as readings obtained at 665 nm. […]
measurement_type: IC50

Record `CNC(=O)c1cccc(-c2nc3c(nc2N2CCC(Oc4ccc(F)cc4F)CC2)CCN(C(C)=O)C3)n1` ; system GPR3 (Homo sapiens, UniProt P46089); IC50 = 1000 to 30000 nM

Record CC(=O)N1Cc2nc(-c3cnn(C)c3)c(N3CCC(Oc4ccc(F)cc4F)CC3)nc2CC1C (single isomer, unassigned) [Compound 446] ; system GPR3 (Homo sapiens, UniProt P46089); IC50 = 1000 to 30000 nM

Record `Cn1cc(-c2nc3cnccc3nc2N2CCN(Cc3ccc(F)cc3F)C(=O)C2)cn1` ; system GPR3 (Homo sapiens, UniProt P46089); IC50 = ≥ 30000 nM

Record `Nc1cc2nc(N3CCC(Oc4ccc(F)cc4F)CC3)c(-c3cnn(C4CC4)c3)nc2cn1` ; system GPR3 (Homo sapiens, UniProt P46089); IC50 = 1000 to 30000 nM

Record `Cn1cc(-c2nc3c(C#N)nccc3nc2N2CCC(Oc3ccc(F)cc3F)CC2)cn1` ; system GPR3 (Homo sapiens, UniProt P46089); IC50 = 100 to 1000 nM

Record `COc1cncc(-c2nc3cnccc3nc2N2CC3(CC(Oc4ccc(F)cc4F)C3)C2)n1` ; system GPR3 (Homo sapiens, UniProt P46089); IC50 = ≥ 30000 nM

Record `O=S(=O)(C1COC1)N1CCc2nc(N3CCC(Oc4ccc(F)cc4F)CC3)c(-c3cn[nH]c3)nc2C1` ; system GPR3 (Homo sapiens, UniProt P46089); IC50 = 1000 to 30000 nM

Record `Cc1cncc2nc(-c3cnn(C)c3)c(N3CCC(Oc4ccc(F)cc4F)CC3)nc12` ; system GPR3 (Homo sapiens, UniProt P46089); IC50 = 1000 to 30000 nM

Record `CC(=O)N1CCc2nc(N3CCC(Oc4ccc(F)cc4F)CC3)c(-c3cnn4c3CN(C)CC4)nc2C1` ; system GPR3 (Homo sapiens, UniProt P46089); IC50 = 1000 to 30000 nM

Record `COc1cncc(-c2nc3c(nc2N2CCC(Oc4ccc(F)cc4F)CC2)CCN(C(C)=O)C3)n1` ; system GPR3 (Homo sapiens, UniProt P46089); IC50 = 1000 to 30000 nM

Record `COc1nccc(-c2nc3c(nc2N2CCC(Oc4ccc(F)cc4F)CC2)CCN(C(C)=O)C3)n1` ; system GPR3 (Homo sapiens, UniProt P46089); IC50 = 100 to 1000 nM

Record `COc1cccc(OC2CCN(c3nc4c(nc3-c3cnn(C)c3)CN(C(C)=O)CC4)CC2)c1F` ; system GPR3 (Homo sapiens, UniProt P46089); IC50 = 1000 to 30000 nM

Record `Cn1cc(-c2nc3cnc(CC(C)(C)O)cc3nc2N2CCC(Oc3ccc(F)cc3F)CC2)cn1` ; system GPR3 (Homo sapiens, UniProt P46089); IC50 = 1000 to 30000 nM

Record `CC(=O)N1CCc2nc(N3CCC(Oc4ccc(F)cc4F)CC3)c(-c3ccc[nH]c3=O)nc2C1` ; system GPR3 (Homo sapiens, UniProt P46089); IC50 = ≥ 30000 nM

Record `Cn1cc(-c2nc3c(nc2N2CCC(Oc4ccc(F)cc4F)CC2)CCN(S(C)(=O)=O)C3)cn1` ; system GPR3 (Homo sapiens, UniProt P46089); IC50 = 1000 to 30000 nM

* * *

For each entry below, report its IC50 value.
Target: GPR6 (Homo sapiens)
Construct: expressed in transfected cells; host or cells: CHO cells
Test: GPR6 antagonist functional cAMP assay (LANCE Ultra cAMP TR-FRET, CHO cells stably expressing GPR6)
Assay type: cell-based
Settings: CHO cells stably expressing GPR6, cAMP assay (Example 24)

For record `Cn1cc(-c2nc3cnc(Cl)cc3nc2N2CCN(Cc3ccc(F)cc3F)CC2)cn1` the listed IC50 is 1000 to 30000 nM

For record `CC(=O)N1CCc2nc(N3CCC(Oc4ccc(F)cc4F)CC3)c(C3CCC(=O)CC3)nc2C1` the listed IC50 is 1000 to 30000 nM

For record CC(=O)N1CCc2nc(N3CCC(Oc4ccc(F)cc4F)CC3)c(-c3cccc(C(O)C(F)F)n3)nc2C1 (stereo not drawn) the listed IC50 is 1000 to 30000 nM

For record `O=S1(=Nc2ccc(F)cc2F)CCN(c2nc3ccncc3nc2-c2cn[nH]c2)CC1` the listed IC50 is 1000 to 30000 nM

For record Cn1cc(-c2nc3c(nc2N2CCC(Oc4ccc(F)cc4F)CC2)CC2COC(=O)N2C3)cn1 (stereo not drawn) the listed IC50 is 100 to 1000 nM

For record `CC(=O)N1CCc2nc(-c3cn[nH]c3)c(N3CCC(Oc4ccc(F)cc4F)CC3)nc2C1` the listed IC50 is 100 to 1000 nM

For record OCC1CN(c2nc3ccncc3nc2-c2cn[nH]c2)CCN1Cc1ccc(F)cc1F (single isomer, unassigned) the listed IC50 is 1000 to 30000 nM

For record `CC(=O)N1CCc2nc(N3CCC(Oc4ccc(F)cc4F)CC3)c(-c3nccs3)nc2C1` the listed IC50 is 1000 to 30000 nM

For record O=C(CN1CCOCC1)N1CCc2nc(N3CCC(Oc4ccc(F)cc4F)CC3)c(-c3cnn(C4CCCCO4)c3)nc2C1 (stereo not drawn) the listed IC50 is 1000 to 30000 nM

For record `CC(=O)N1CCc2nc(N3CC=CCC3)c(-c3cnn(C)c3)nc2C1` the listed IC50 is ≥ 30000 nM

For record `CC(=O)N1CCc2nc(N3CCC(Oc4ccc(F)cc4F)CC3)c(-c3cncc(Cl)c3)nc2C1` the listed IC50 is 100 to 1000 nM

For record `CC(=O)N1CCc2nc(-c3cccc(=O)[nH]3)c(N3CCC(Oc4ccc(F)cc4F)CC3)nc2C1` the listed IC50 is 1000 to 30000 nM

For record `CC(=O)N1CCc2nc(N3CCC(Oc4ccc(F)cc4F)CC3)c(-c3ccnc(N)n3)nc2C1` the listed IC50 is < 100 nM

For record CNC(CO)c1cc2nc(N3CCC(Oc4ccc(F)cc4F)CC3)c(-c3cnn(C)c3)nc2cn1 (stereo not drawn) the listed IC50 is 1000 to 30000 nM

For record CC(C)(O)[C@H](O)c1cc2nc(N3CCN(Cc4ccc(F)cc4F)CC3)c(-c3cnn(C(F)F)c3)nc2cn1 (single isomer, unassigned) the listed IC50 is 100 to 1000 nM
